Origin of the recorded values: patent US4591604A

- study-target: activated human C1 (Homo sapiens, UniProt P09871)
- assay-remarks: Test Code 026 (C1 inhibitor)
- Assay type: biochemical
- condition-parameters: serial twofold dilution assay; higher well number indicates higher activity
Please go through the items and note down their C1 026 Wells.

Before answering, review these 4 worked examples.
compound-structure	study-target	result
O=C(Nc1ccc2c(O)cc(S(=O)(=O)O)cc2c1)Nc1ccc2c(O)cc(S(=O)(=O)O)cc2c1	activated human C1 (Homo sapiens, UniProt P09871)	+1 Wells
O=C(Nc1ccc2c(S(=O)(=O)[O-])cc(S(=O)(=O)[O-])cc2c1)Nc1ccc2c(S(=O)(=O)[O-])cc(S(=O)(=O)[O-])cc2c1.[Na+].[Na+].[Na+].[Na+]	activated human C1 (Homo sapiens, UniProt P09871)	+3 Wells
O=C(Nc1cc(S(=O)(=O)[O-])cc2cc(S(=O)(=O)[O-])ccc12)Nc1cc(S(=O)(=O)[O-])cc2cc(S(=O)(=O)[O-])ccc12.[Na+].[Na+].[Na+].[Na+]	activated human C1 (Homo sapiens, UniProt P09871)	+3 Wells
O=C(Nc1cc(S(=O)(=O)[O-])c2cc(S(=O)(=O)[O-])cc(S(=O)(=O)[O-])c2c1)Nc1cc(S(=O)(=O)[O-])c2cc(S(=O)(=O)[O-])cc(S(=O)(=O)[O-])c2c1.[Na+].[Na+].[Na+].[Na+].[Na+].[Na+]	activated human C1 (Homo sapiens, UniProt P09871)	+6 Wells

Now take the following molecule into account.
`O=C(Nc1cc(S(=O)(=O)[O-])cc2cc(S(=O)(=O)[O-])cc(S(=O)(=O)[O-])c12)Nc1cc(S(=O)(=O)[O-])cc2cc(S(=O)(=O)[O-])cc(S(=O)(=O)[O-])c12.[Na+].[Na+].[Na+].[Na+].[Na+].[Na+]` yielded C1 026 Wells of +5 Wells
